System: MCF7 breast
Assay: NCI tumour cell line growth inhibition, 48 h; in the data active = GI50 below about 0.43 µM; inactive = the rest
Labels: label 1 (active), label 0 (inactive)

>  <structure_notation>
NC(=O)c1ccccc1Nc1ccc2nnc(-c3ccncc3)n2n1

>  <category>
label 0

$$$$
>  <structure_notation>
CNC(=O)c1cccc2cc(Oc3ccnc4cc(OCC5(N)CC5)c(OC)cc34)ccc12

>  <category>
label 0

$$$$
>  <structure_notation>
Cc1cc(C(=C2C=CC(=Nc3ccccc3)C=C2)c2ccc(Nc3ccccc3)cc2)ccc1N

>  <category>
label 1

$$$$
>  <structure_notation>
Cc1cc(Cl)ccc1Nc1nc(C(F)(F)F)ccc1C(=O)N/N=C/c1ccc(Cl)cc1

>  <category>
label 0

$$$$
>  <structure_notation>
O=C1C(N2CC2)=C(N2CC2)C(=O)C(N2CC2)=C1N1CC1

>  <category>
label 1

$$$$

Source listed as PubChem BioAssay (NCI).
